Molecular target: P. aeruginosa LpxC (Pseudomonas aeruginosa)
Construct: made in house
Sequence (P47205 whole entry): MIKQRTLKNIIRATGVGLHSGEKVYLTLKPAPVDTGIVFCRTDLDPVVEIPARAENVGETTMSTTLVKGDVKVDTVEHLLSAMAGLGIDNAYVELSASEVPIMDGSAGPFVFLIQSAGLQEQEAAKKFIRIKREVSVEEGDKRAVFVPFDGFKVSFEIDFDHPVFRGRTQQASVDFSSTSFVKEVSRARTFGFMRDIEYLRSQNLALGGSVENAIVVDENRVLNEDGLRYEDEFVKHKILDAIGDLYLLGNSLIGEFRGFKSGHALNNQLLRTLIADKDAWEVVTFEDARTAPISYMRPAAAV
Test: biochemical
Conditions: 1 nM P. aeruginosa LpxC, 30 min pre-incubation, 2 μM UDP-3-O-(R-3-hydroxydecanoyl)-GlcNAc, pH 7.5, room temperature; read-out: IC50 (LpxC inhibitory activity)
Value kind: IC50 (nM)

Below: 10 molecules and their reported IC50.
>>> measured_number("C=C/C=C/COc1ccc(C(=O)NC(C(=O)NO)C(C)(C)N)cc1 (centres unmarked) [Example 41]")
2.1
>>> measured_number("CC#CC(C)(C)Oc1ccc(C(=O)N[C@H](C(=O)NO)[C@@H](C)N)cc1 [Example 27]")
73.3
>>> measured_number("CC#CCOc1ccc(C(=O)NC(C(=O)NO)C(C)(C)N)cc1Cl (centres unmarked) [Example 55]")
9.9
>>> measured_number("CC#CCOc1ccc(C(=O)N[C@H](C(=O)NO)C(C)(C)NC)cc1 [Example 59]")
3.2
>>> measured_number("C[C@@H](N)[C@H](NC(=O)c1ccc(OCCCC#Cc2ccccc2)cc1)C(=O)NO [Example 30]")
35.6
>>> measured_number("CC(C)(N)[C@H](NC(=O)c1ccc(OC/C=C/C#CCO)cc1)C(=O)NO [Example 72]")
1
>>> measured_number("CC#CCOc1ccc(C(=O)N[C@H](C(=O)NO)C(C)(C)O)cc1 [Example 20]")
6.5
>>> measured_number("CC#CCCOc1ccc(C(=O)NC(C(=O)NO)C(C)(C)N)cc1 (centres unmarked) [Example 25]")
35.1
>>> measured_number("CC(C)(N)[C@H](NC(=O)c1ccc(OC/C=C/C#CCCO)cc1)C(=O)NO [Example 15]")
2
>>> measured_number("CC#CCOc1ccc(C(=O)NC(C(=O)NO)C(C)(C)N)cc1C (centres unmarked) [Example 54]")
16.7

[I] CC(C)(C)C#CCOc1ccc(C(=O)NC(C(=O)NO)C(C)(C)N)cc1 (centres unmarked) [Example 4]
[II] C#CCOc1ccc(C(=O)N[C@H](C(=O)NO)[C@@H](C)N)cc1 [Example 29]
[III] Cc1ccc(C#CCOc2ccc(C(=O)N[C@H](C(=O)NO)C(C)(C)N)cc2)cc1 [Example 66]
Order the entries by their reported IC50, beginning at the minimum. Order the labels as requested and list them. I, II, III

[P] CC#CCOc1c(Cl)cc(C(=O)NC(C(=O)NO)C(C)(C)N)cc1Cl (centres unmarked) [Example 40]
[Q] CC(C)(N)[C@H](NC(=O)c1ccc(OCC#Cc2ccc(O)cc2)cc1)C(=O)NO [Example 68]
Exercise: compare P and Q ; which one has the greater IC50? Respond using the label that marks the chosen record. Q
(Q: 1900 nM, P: 34.6 nM)

[A] CCC#CCOc1ccc(C(=O)NC(C(=O)NO)C(C)(C)N)cc1 (centres unmarked) [Example 21]
[B] C/C=C/COc1ccc(C(=O)N[C@H](C(=O)NO)[C@@H](C)N)cc1 [Example 57]
[C] CC(C)(N)[C@H](NC(=O)c1ccc(OCC#CC2=CCC(N)CC2)cc1)C(=O)NO (some centres unmarked) [Example 75]
[D] CC#CCOc1ccc(C(=O)NC(C(=O)NO)C2(N)CC2)cc1 (centres unmarked) [Example 1]
Rank by IC50 (largest to smallest). Present the labels in the sequence the task asks for. B, D, C, A
(B: 30 nM, D: 13.7 nM, C: 6 nM, A: 1 nM)

All figures here come from patent US8372885B2.
